System Under Test: Gelatinase
Protocol Text: MMP inhibition by particle concentration fluorescence technique (gelatinase)
Stated Conditions: pH 7.5; 15 min enzyme preincubation; substrate 1-3 h at room temperature; read-out: MMP Inhibition Constants, Gelatinase Ki
Exam item: assign true to entries whose Ki is below 300 nM and false to entries at or above 300 nM. Note that a value of exactly 300 nM receives false.

See these solved cases before continuing.
CC(C)C[C@@]1(CC(=O)NO)CCN([C@@H](Cc2ccccc2)C(=O)Nc2ccccn2)C1=O :: true
CC(C)C[C@@]1([C@@H](CCN2C(=O)c3cc(Cl)c(Cl)cc3C2=O)C(=O)NO)CCN(CCc2ccccc2)C1=O (relative stereo) :: false
CCCOc1ccc2c(c1)C(=O)N(CCC(C(=O)NO)C1(CC(C)C)CCN(CCc3ccccc3)C1=O)C2=O (stereo not shown) :: false
CC(C)CC1(CC(=O)NO)CCN(Cc2ccccc2)C1=O (stereo not shown) :: false
CC(C)C[C@@]1([C@@H](CCN2C(=O)c3ccccc3C2=O)C(=O)NO)CCN(CCc2ccc(F)cc2)C1=O (relative stereo) :: true

Please let me know if CC(C)CC1(C(CSc2cccs2)C(=O)NO)CCN(CCc2ccccc2)C1=O (stereo not shown) shows Ki below 300 nM.
false

Report whether reported Ki is lower than 300 nM (strictly) for CC(C)C[C@@]1(CC(=O)NO)CCN([C@@H](CCc2ccccc2)C(=O)NCc2ccccc2)C1=O
true

----------
# key: entry, value: Ki
System Under Test: Gelatinase
Protocol Text: MMP inhibition by particle concentration fluorescence technique (gelatinase)
Stated Conditions: pH 7.5; 15 min enzyme preincubation; substrate 1-3 h at room temperature; read-out: MMP Inhibition Constants, Gelatinase Ki
Description: Inhibitory activity is evaluated in one or more of the MMP enzymes (stromelysin, gelatinase, and collagenase) in vitro using a particle concentration fluorescence techniques. An inhibitor binds to MMP enzymes prevents the degradation of a substrate of stromelysin, gelatinase, or collagenase. […] Without an inhibitor present, the substrate is degraded by MMP enzymes and the fluorescein group is removed, therefore, no fluorescent signal can be detected. […]
# value in nM; strip the unit string

# annotated cases, reported Ki shown
CC(C)C[C@@]1([C@@H](CCNC(=O)c2ccc(F)cc2)C(=O)NO)CCN(CCc2ccccc2)C1=O (relative stereo) [Example 75] :: 264
CNC(=O)[C@H](Cc1ccccc1)N1CC[C@@](CC(C)C)([C@H](CCNC(=O)c2ccccc2)C(=O)NO)C1=O [Example 53] :: 1.06
COc1ccc(S(=O)(=O)NCC[C@@H](C(=O)NO)[C@]2(CC(C)C)CCN(CCc3ccccc3)C2=O)cc1 (relative stereo) [Example 82] :: 878
CC(C)C[C@@]1([C@@H](CCNC(=O)c2ccc(-c3ccccc3)cc2)C(=O)NO)CCN(CCc2ccccc2)C1=O (relative stereo) [Example 79] :: 1.77
CC(C)C[C@@]1(CC(=O)NO)CCN([C@@H](Cc2ccccc2)C(=O)Nc2ccc(F)cc2)C1=O [Example 42] :: 5.4

Attention now shifts to the item below.
Measured Ki, CNC(=O)CN1CC[C@@](CC(C)C)([C@@H](CCN2C(=O)c3c(F)c(F)c(F)c(F)c3C2=O)C(=O)NO)C1=O (relative stereo) [Example 27] : 16500

----------
System Under Test: Gelatinase
Protocol Text: MMP inhibition by particle concentration fluorescence technique (gelatinase)
Stated Conditions: pH 7.5; 15 min enzyme preincubation; substrate 1-3 h at room temperature; read-out: MMP Inhibition Constants, Gelatinase Ki
This section presents molecules with their documented log10(Ki) values.
A difference of one corresponds to tenfold Ki; all values are log10 with Ki in nM.

For orientation, consider the following solved cases.
CC(C)C[C@@]1([C@@H](CCNS(=O)(=O)c2ccccc2)C(=O)NO)CCN(CCc2ccccc2)C1=O (relative stereo) [Example 83] :: 2.76
CNC(=O)[C@H](Cc1ccccc1)N1CC[C@@](CCC(C)C)(CC(=O)NO)C1=O [Example 34] :: 1.49

Consider CC(C)CC1(CC(=O)NO)C(=O)N(CCc2ccccc2)C(=O)N1C (centres unmarked) [Example 36] . Its measured log10(Ki) is 4.64

CC(C)C[C@@]1([C@@H](CCN2Cc3cc(F)c(F)cc3C2=O)C(=O)NO)CCN(CCc2ccccc2)C1=O [Example 89] yielded log10(Ki) of 2.16

Looking up CC(C)C[C@@]1([C@@H](CCCN2C(=O)c3ccccc3C2=O)C(=O)NO)CCN(CCc2ccccc2)C1=O (relative stereo) [Example 15] , I found its log10(Ki) recorded as 2.89

The value of log10(Ki) measured for the molecule CC(C)C[C@@H](C(=O)Nc1ccccn1)N1CC[C@](CC(=O)NO)(CC(C)C)C1=O [Example 49] turned out to be 1.79

Entry CNC(=O)CN1CCC(CC(=O)NO)(CC(C)C)C1=O (centres unmarked) [Example 20] — recorded log10(Ki) = 3.49

Sure, the documented log10(Ki) for CNC(=O)[C@H](C1CCCCC1)N1CC[C@](CC(=O)NO)(CC(C)C)C1=O [Example 50] is 1.23

Reported log10(Ki) of CC(C)C[C@@]1(CC(=O)NO)CCN([C@@H](Cc2ccccc2)C(=O)N2C[C@@H](C)N[C@@H](C)C2)C1=O (relative stereo) [Example 56] : 2.53

Reported log10(Ki) ( CC(C)C[C@@]1([C@H](CCN2C(=O)c3ccccc3C2=O)C(=O)NO)CCN(CCc2ccc(F)cc2)C1=O (relative stereo) [Example 72] ) = 1.92

Briefly, log10(Ki) measured for CC(C)C[C@@]1([C@@H](CCN2C(=O)c3ccccc3C2=O)C(=O)NO)CCN(Cc2cccc(F)c2)C1=O (relative stereo) [Example 25] : 3.11

Please fill in: log10(Ki) reported for CC(C)C[C@@]1([C@@H](CCN2C(=O)c3ccc(C(F)(F)F)cc3C2=O)C(=O)NO)CCN(CCc2ccccc2)C1=O (relative stereo) [Example 65] = 2.36

Measured log10(Ki), CC(C)C[C@@]1([C@@H](CN2C(=O)c3ccccc3C2=O)C(=O)NO)CCN(CCc2ccccc2)C1=O (relative stereo) [Example 16] : 3.46

Just so you know, measured log10(Ki) for CC(C)C[C@@]1(CC(=O)NO)CCN([C@H](C(=O)Nc2ccc(F)cc2)C2CCCCC2)C1=O [Example 60] came out at 1.09

Where do the numbers come from? From patent US5712300A.
